# SYSTEM TESTED: NT-3 growth factor receptor (Homo sapiens) (UniProt Q16288)
# Sequence (Q16288 32-839 limits assumed): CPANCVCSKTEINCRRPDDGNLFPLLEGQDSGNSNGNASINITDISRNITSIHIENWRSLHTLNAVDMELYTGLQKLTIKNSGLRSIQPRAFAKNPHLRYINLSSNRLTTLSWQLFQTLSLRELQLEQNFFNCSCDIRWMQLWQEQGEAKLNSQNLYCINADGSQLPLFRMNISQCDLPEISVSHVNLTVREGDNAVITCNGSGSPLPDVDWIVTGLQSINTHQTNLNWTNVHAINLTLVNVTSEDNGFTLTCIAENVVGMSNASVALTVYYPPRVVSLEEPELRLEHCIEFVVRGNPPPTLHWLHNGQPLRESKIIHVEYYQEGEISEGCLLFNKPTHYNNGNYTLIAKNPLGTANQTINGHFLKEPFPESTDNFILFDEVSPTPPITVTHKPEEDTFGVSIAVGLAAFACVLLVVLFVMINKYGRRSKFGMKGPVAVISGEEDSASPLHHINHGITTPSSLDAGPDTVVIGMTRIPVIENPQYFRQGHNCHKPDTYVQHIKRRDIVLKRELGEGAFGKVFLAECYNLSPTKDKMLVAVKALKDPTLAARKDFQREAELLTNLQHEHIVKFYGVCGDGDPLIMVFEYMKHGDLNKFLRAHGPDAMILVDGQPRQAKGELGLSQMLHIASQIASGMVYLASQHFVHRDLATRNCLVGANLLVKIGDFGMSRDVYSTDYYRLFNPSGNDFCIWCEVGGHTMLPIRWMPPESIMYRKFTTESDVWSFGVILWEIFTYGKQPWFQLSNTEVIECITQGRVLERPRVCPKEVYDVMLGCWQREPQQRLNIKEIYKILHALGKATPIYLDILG
# TEST DETAILS: Inhibition of TRKC (unknown origin) at 0.5 uM relative to control
Kindly state inhibition for each of the entries shown.
Numeric answer only, unit % assumed.

For reference, reported inhibition for `CNC(=O)c1cc(Oc2ccc(NC(=O)c3nc(S(C)(=O)=O)sc3-c3ccc(F)cc3)cc2)ccn1` stands at 25

Sample `CNC(=O)c1cc(Oc2ccc(NC(=O)c3nc(SC)oc3-c3ccc(F)cc3)cc2F)ccn1` ; inhibition observed: 46

The value of inhibition measured for the molecule `CNC(=O)c1cc(Oc2ccc(NC(=O)c3nc(SC)[nH]c3-c3ccc(F)cc3)cc2)ccn1` turned out to be 90

In plain terms, `CNC(=O)c1cc(Oc2ccc(NC(=O)c3n[nH]nc3-c3ccc(F)cc3)cc2)ccn1` has a documented inhibition of 55

Reported inhibition ( `CNC(=O)c1cc(Oc2ccc(NC(=O)c3nc(NC)sc3-c3ccc(F)cc3)cc2)ccn1` ) = 76

Record `CNC(=O)c1cc(Oc2ccc(NC(=O)c3nc(SC)n(CCN(C)C)c3-c3ccc(F)cc3)cc2)ccn1` , field inhibition: 57

Just so you know, measured inhibition for `CNC(=O)c1cc(Oc2ccc(NC(=O)c3nc(SC)oc3-c3ccc(F)cc3)cc2)ccn1` came out at 51
